Target: human FXIa (Homo sapiens)
Sequence (P03951 388-625 limits assumed): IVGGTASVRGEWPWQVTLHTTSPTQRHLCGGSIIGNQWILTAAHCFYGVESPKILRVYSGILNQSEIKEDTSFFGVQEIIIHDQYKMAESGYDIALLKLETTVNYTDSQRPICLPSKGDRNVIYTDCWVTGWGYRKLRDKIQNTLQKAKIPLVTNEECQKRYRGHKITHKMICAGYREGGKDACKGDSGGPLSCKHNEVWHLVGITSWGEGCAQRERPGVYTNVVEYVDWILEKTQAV
Sequence (P03951 19-387 partner limits assumed): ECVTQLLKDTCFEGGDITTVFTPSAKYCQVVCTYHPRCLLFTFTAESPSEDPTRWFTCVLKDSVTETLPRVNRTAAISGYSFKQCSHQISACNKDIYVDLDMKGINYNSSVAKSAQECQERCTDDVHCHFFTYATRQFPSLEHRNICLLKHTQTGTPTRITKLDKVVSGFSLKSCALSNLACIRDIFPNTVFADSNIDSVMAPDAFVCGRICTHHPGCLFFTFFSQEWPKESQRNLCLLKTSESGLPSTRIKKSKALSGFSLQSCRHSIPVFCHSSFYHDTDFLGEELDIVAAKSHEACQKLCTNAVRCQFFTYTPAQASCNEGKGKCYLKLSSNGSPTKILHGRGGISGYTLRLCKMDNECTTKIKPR
Assay: In vitro activated factor XI (FXIa) inhibition test
Assay type: biochemical
Conditions: 0.35 µg/mL human FXIa, substrate S-2366 300 µmol/L, 37°C, 10 minutes, OD 405 nm; read-out: FXIa inhibitory activity IC50
READOUT LABEL: IC50 (nM)
Response body: numeric value in nM, unit text excluded.

Solved entries:
Record Cc1oc(=O)oc1COC(=O)c1cc2cc(NC(=O)[C@@H]3[C@@H](c4ccccc4)CCN3C(=O)[C@H]3CC[C@H]([C@H](N)CF)CC3)ccc2[nH]1 [compound 171] . Reported IC50: 300

Recorded result, N[C@H](CF)[C@H]1CC[C@H](C(=O)N2CC[C@@H](C3CCCCC3)[C@H]2C(=O)Nc2ccc(C(=O)NS(=O)(=O)c3ccccc3)c(F)c2)CC1 [compound 133] , IC50: 99

Reported IC50 ( Cn1c(C(=O)O)cc2cc(NC(=O)[C@@H]3[C@H](C4CCCCC4)CCN3C(=O)[C@H]3CC[C@H](C(N)CF)CC3)ccc21 (stereo partly drawn) [compound 29] ) = 82

Short answer for NC(CF)[C@H]1CC[C@H](C(=O)N2CC[C@@H](C3CCCCC3)[C@H]2C(=O)Nc2ccc3[nH]c(C(=O)O)cc3c2)CC1 (stereo partly drawn) [compound 35] : IC50 was 14

Kindly note the recorded IC50 for COC(=O)Nc1nc2ccc(NC(=O)[C@@H]3[C@H](C4CCCCC4)CCN3C(=O)[C@H]3CC[C@H]([C@H](N)CF)CC3)cc2s1 [compound 148] , which is 140

GET /value?item= NC[C@H]1CC[C@H](C(=O)N2CC[C@@H](c3ccccc3)[C@H]2C(=O)Nc2ccc(-c3nc(=O)o[nH]3)c(F)c2)CC1 [compound 14] &field=IC50 returns 130

So, CS(=O)(=O)NC(=O)c1cc2cc(NC(=O)[C@@H]3[C@H](C4CCCCC4)CCN3C(=O)[C@H]3CC[C@H]([C@H](N)CF)CC3)ccc2[nH]1 [compound 114] ? Its IC50 was 7

// sample CN(C)S(=O)(=O)NC(=O)c1cc2cc(NC(=O)[C@@H]3[C@H](C4CCCCC4)CCN3C(=O)[C@H]3CC[C@H]([C@H](N)CF)CC3)ccc2o1 [compound 211] , its IC50 was 29

Notebook: CS(=O)(=O)NC(=O)c1ccc(NC(=O)[C@@H]2[C@H](C3CCCCC3)CCN2C(=O)[C@H]2CC[C@H]([C@H](N)CF)CC2)cc1 [compound 147] , IC50 read as 205

The recorded IC50 for entry NC[C@H]1CC[C@H](C(=O)N2CCC(c3ccccc3)[C@H]2C(=O)Nc2ccc3[nH]c(C(N)=O)cc3c2)CC1 (stereo partly drawn) [compound 24] equals 34

Others:
Briefly, IC50 measured for Cc1c(C(=O)O)[nH]c2ccc(NC(=O)[C@@H]3[C@H](C4CCCCC4)CCN3C(=O)[C@H]3CC[C@H](C(N)CF)CC3)cc12 (stereo partly drawn) [compound 39] : 63

Please fill in: IC50 reported for N[C@H](CF)[C@H]1CC[C@H](C(=O)N2CC[C@@H](C3CCCCC3)[C@H]2C(=O)Nc2ccc(C(=O)O)cc2)CC1 [compound 96] = 98

Consider N[C@H](CF)[C@H]1CC[C@H](C(=O)N2CC[C@@H](C3CCCCC3)[C@H]2C(=O)Nc2ccc3[nH]c(C(=O)NS(=O)(=O)N4CCCCC4)cc3c2)CC1 [compound 213] . Its measured IC50 is 10

The value of IC50 measured for the compound N[C@H](CF)[C@H]1CC[C@H](C(=O)N2CC[C@@H](C3CCCCC3)[C@H]2C(=O)Nc2ccc3[nH]c(C(=O)O)c(Cl)c3c2)CC1 [compound 184] turned out to be 30

Memo: Cc1noc(-c2ccc(NC(=O)[C@@H]3[C@H](C4CCCCC4)CCN3C(=O)[C@H]3CC[C@H]([C@H](N)CF)CC3)cc2)n1 [compound 115] , reported IC50: 1500

IC50 in this record for Cc1c(C(=O)O)oc2ccc(NC(=O)[C@@H]3[C@H](C4CCCCC4)CCN3C(=O)[C@H]3CC[C@H]([C@H](N)CF)CC3)cc12 [compound 55] : 220

// IC50 value for N[C@H](C(F)F)[C@H]1CC[C@H](C(=O)N2CC[C@@H](C3CCCCC3)[C@H]2C(=O)Nc2ccc3oc(C(=O)O)cc3c2)CC1 [compound 146] : 916

Reported IC50 of CC(N)[C@H]1CC[C@H](C(=O)N2CC[C@H](c3ccccc3)[C@H]2C(=O)Nc2ccc3oc(C(=O)O)cc3c2)CC1 (stereo partly drawn) [compound 46] : 90

Looking up NC(CF)[C@H]1CC[C@H](C(=O)N2CC[C@@H](C3CCCCC3)[C@H]2C(=O)Nc2ccc3[nH]c(C(=O)O)c(Cl)c3c2)CC1 (stereo partly drawn) [compound 34] , I see its IC50 listed as 28

response.value for COC1CCC([C@@H]2CCN(C(=O)[C@H]3CC[C@H]([C@H](N)CF)CC3)[C@@H]2C(=O)Nc2ccc3oc(C(=O)O)cc3c2)CC1 (stereo partly drawn) [compound 103] (field: IC50) = 2350

Data point: COC1CCC([C@@H]2CCN(C(=O)[C@H]3CC[C@H]([C@H](N)CF)CC3)[C@@H]2C(=O)Nc2ccc3oc(C(=O)OCC(C)C)cc3c2)CC1 (stereo partly drawn) [compound 201] ; IC50 = 4100
